Reported ELISA [abs. corr.] values are given for each entry in this list.
Test Target: T1, CD134 protein (His-tagged, Sino Biological Inc. 10481-H08H) (human, UniProt P43489 29-216)
T1 construct: bought protein coated on ELISA plates; also called OX40; TNFRSF4; not shown: His tag
T1 sequence (looked up): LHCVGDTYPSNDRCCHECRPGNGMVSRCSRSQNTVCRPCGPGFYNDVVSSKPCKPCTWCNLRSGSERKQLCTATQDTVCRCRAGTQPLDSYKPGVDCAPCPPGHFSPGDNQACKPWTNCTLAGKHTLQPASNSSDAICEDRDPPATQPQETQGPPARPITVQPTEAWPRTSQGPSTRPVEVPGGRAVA
Assay Procedure: ELISA, coated His-tagged CD134; further: test concentration or dose not given here
// units = abs. corr.; emit number, no label

>>> quantitative_result("P018.S.12.A.F06 (antibody, V domains shown, V regions on human Ig constant parts; also called AB134_82) VH: QSLEESGGDLVKPGGTLTLTCKASGIDFNNYYVCWVRQAPGKGLEWVGCIYTGSGSTYYASWAKGRFTITRSSSTTVTLQMTSLTAADTATYFCARPEFYDTYGYAGYGYATPNYFNFWGPGTLVTVSS VL: AAVLTQTPSPVSAAVGGTVTIKCQASQSVYNNNLLSWYQQKPGQPPKLLMYDASNLASGVPDRFSGSGSGTQFTLTISDLESDDAATYYCLGGYDDDADYNAFGGGTEVVVA")
1.65

Turning now to a further binder:
Incoming: Item P018.S.12.A.G04 (antibody, V domains shown, V regions on human Ig constant parts; also called AB134_86) VH: QSVEESGGRLVTPGTPLTLTCTVSGFSLNSYDMSWVRQAPGKGLEWIGFISAIDNTYYASWAKGRFTISKTSTTVDLKITSPTTEDTATYFCASDSYGWAYVYYFNLWGPGTLVTVSS VL: AVVLTQTPASVSATVGGTVTINCRASEDIGSYLGWYQQKPGQPPKLLIHDASDLASGVPSRFSGSGSGTEFTLTISGVQSDDAATYYCQSAWYSSDSDKMAFGGGTEVVVK has what recorded ELISA [abs. corr.]?
Outgoing: 2.08
